System: IICR (IP3 induced calcium release) in CHO cells
TEST_NAME: Assay of IICR (IP3 induced calcium release)-inhibiting action
Assay type: cell-based, Chinese hamster
PROTOCOL_CONDITIONS: test compound 100 μmol; CHO cells, 10 μM ATP
Give IICR level (percentage of inhibition) for every item shown.
Supply the numeric figure in %, leaving out any unit text.

[Q] Given O=C(CCN(CCO)CCO)c1ccco1 [Example 174] , state its recorded IICR level (percentage of inhibition).
[A] 0

[Q] Quick one: IICR level (percentage of inhibition) for O=C(CCNCCSSCCNCCC(=O)c1ccco1)c1ccco1 [Example 372] ?
[A] 58

[Q] I am curious: what IICR level (percentage of inhibition) value has been reported for CC(C)N(CCO)CCC(=O)c1ccco1 [Example 153] ?
[A] 80

[Q] Consider the compound shown here: O=C(CCNCCSSCCNCCC(=O)c1ccsc1)c1ccsc1 [Example 380] What is its recorded IICR level (percentage of inhibition)?
[A] 81

[Q] Name the reported IICR level (percentage of inhibition) value associated with the compound CCc1nccnc1C(=O)CCN(CCO)C(C)C [Example 252]
[A] 80

[Q] Using the record for O=C(CCNCCO)c1ccc(Br)s1 [Example 358] , report its IICR level (percentage of inhibition).
[A] 70

[Q] What value of IICR level (percentage of inhibition) has been reported for the following compound? CN(CCC(=O)c1ccc2ccccc2c1)Cc1ccccc1 [Example 99]
[A] 60

[Q] Looking for the measured IICR level (percentage of inhibition) of CC(C)N(CCO)CCCC(=O)c1ccccc1 [Example 178] , can you help?
[A] 0
